# System: T-cell
# assay: Selectivity index ratio of CC50 for BALB/c mouse lymph node cells to IC50 for BALB/c mouse ConA-induced T cell proliferation
# Format: functional
# label = bin(measured Ratio CC50/IC50), where bins are label 0 (below 20), label 1 (20 to below 30), label 2 (30 or more)

Before answering, review these 10 worked examples.
- COc1cccc(COc2ccc(-c3nnc(SCc4cccc(OC)c4)o3)cc2OC)c1: label 1
- COc1cc(-c2nnc(SCc3cc(F)cc(F)c3)o2)ccc1OCc1cc(F)cc(F)c1: label 0
- COc1cc(-c2nnc(SCc3ccc(Cl)cc3)o2)ccc1OCc1ccc(Cl)cc1: label 0
- COc1cc(-c2nnc(SCc3ccccc3[N+](=O)[O-])o2)ccc1O: label 2
- COc1cc(-c2nnc(SCc3ccccc3F)o2)ccc1O: label 2
- COc1cc(-c2nnc(SCc3ccccc3C)o2)ccc1OCc1ccccc1C: label 0
- COc1cc(-c2nnc(SCc3ccccc3Br)o2)ccc1OCc1ccccc1Br: label 0
- COc1cc(-c2nnc(SCc3ccccc3)o2)ccc1OCc1ccccc1: label 0
- COc1cc(-c2nnc(SCc3ccccc3F)o2)ccc1OCc1ccccc1F: label 2
- COc1cc(-c2nnc(SCc3ccc(C)cc3)o2)ccc1O: label 2

(Q) Assign a category based on measured Ratio CC50/IC50 for COc1cc(-c2nnc(SCc3cccc([N+](=O)[O-])c3)o2)ccc1O and give only the class name.
(A) label 1

====

# assay: Cytotoxicity against BALB/c mouse lymph node cells after 24 hrs by MTT assay
# Assay type: cell-based
value.type: CC50 at 24 h (µM)
Answers are plain numbers, in µM.

Below: 4 compounds and their reported CC50 at 24 h.
- COc1cc(-c2nnc(SCc3ccc(F)cc3F)o2)ccc1OCc1ccc(F)cc1F: 182
- COc1cc(-c2nnc(SCc3ccc(Br)cc3)o2)ccc1O: 455
- COc1cc(-c2nnc(SCc3cccc(Br)c3)o2)ccc1O: 382
- COc1cc(-c2nnc(SCc3cccc([N+](=O)[O-])c3)o2)ccc1O: 392

List CC50 at 24 h for every entry below, keeping the order given.
1. COc1cc(-c2nnc(SCc3ccccc3Br)o2)ccc1O
2. COc1cc(-c2nnc(SCc3ccc(F)cc3)o2)ccc1OCc1ccc(F)cc1
3. COc1cc(-c2nnc(SCc3ccccc3F)o2)ccc1OCc1ccccc1F
4. COc1cc(-c2nnc(SCc3ccc(F)cc3F)o2)ccc1O
5. COc1cc(-c2nnc(SCc3ccccc3Cl)o2)ccc1OCc1ccccc1Cl
6. COc1cc(-c2nnc(SCc3cccc(Cl)c3)o2)ccc1OCc1cccc(Cl)c1

(A)
1. 363
2. 153
3. 171
4. 520
5. 144
6. 178

(Q) Could you please provide reported CC50 at 24 h for COc1cc(-c2nnc(SCc3c(F)cccc3F)o2)ccc1OCc1c(F)cccc1F ? Thanks!
(A) 179

====

# Tested on: T-cell
# assay: Selectivity index ratio of CC50 for BALB/c mouse lymph node cells to IC50 for BALB/c mouse ConA-induced T cell proliferation
# Format: functional
value.type: Ratio CC50/IC50
Answers are plain numbers.

# count of solved cases: 2
- COc1cc(-c2nnc(SCc3ccc(Br)cc3)o2)ccc1O: 51.58
- COc1cc(-c2nnc(SCc3cccc([N+](=O)[O-])c3)o2)ccc1OCc1cccc([N+](=O)[O-])c1: 13.75

# batch size: 5; output Ratio CC50/IC50 per entry
1. COc1cc(-c2nnc(SCc3cccc(Br)c3)o2)ccc1OCc1cccc(Br)c1
2. COc1cccc(CSc2nnc(-c3ccc(O)c(OC)c3)o2)c1
3. COc1cc(-c2nnc(SCc3ccc(F)cc3F)o2)ccc1OCc1ccc(F)cc1F
4. COc1cc(-c2nnc(SCc3ccc([N+](=O)[O-])cc3)o2)ccc1O
5. C/C=C/C[C@@H](C)[C@@H](O)[C@H]1C(=O)N[C@@H](CC)C(=O)N(C)CC(=O)N(C)[C@@H](CC(C)C)C(=O)N[C@@H](C(C)C)C(=O)N(C)[C@@H](CC(C)C)C(=O)N[C@@H](C)C(=O)N[C@H](C)C(=O)N(C)[C@@H](CC(C)C)C(=O)N(C)[C@@H](CC(C)C)C(=O)N(C)[C@@H](C(C)C)C(=O)N1C [CYCLOSPORINE]

(A)
1: 17.66; 2: 52.55; 3: 14.1; 4: 48.6; 5: 82.19

====

# assay: Cytotoxicity against BALB/c mouse lymph node cells after 24 hrs by MTT assay
# Type: cell-based
value.type: CC50 at 24 h
Give me the value, and tack the unit on after it.

Here are 4 compounds together with their reported answers.
• COc1cc(-c2nnc(SCc3ccccc3)o2)ccc1O = 211 µM
• COc1cccc(COc2ccc(-c3nnc(SCc4cccc(OC)c4)o3)cc2OC)c1 = 242 µM
• COc1cc(-c2nnc(SCc3ccc(F)cc3)o2)ccc1O = 685 µM
• COc1cc(-c2nnc(SCc3ccc(C)cc3)o2)ccc1OCc1ccc(C)cc1 = 275 µM

Here are 3 compounds. What values of CC50 at 24 h were reported for them?
1. COc1cccc(CSc2nnc(-c3ccc(O)c(OC)c3)o2)c1
2. COc1cc(-c2nnc(SCc3ccccc3F)o2)ccc1O
3. COc1cc(-c2nnc(SCc3cccc([N+](=O)[O-])c3)o2)ccc1OCc1cccc([N+](=O)[O-])c1

(A)
["389 µM", "474 µM", "168 µM"]

====

# System: T-cell
# assay: Selectivity index ratio of CC50 for BALB/c mouse lymph node cells to IC50 for BALB/c mouse ConA-induced T cell proliferation
# Assay type: functional
value.type: Ratio CC50/IC50
Answers are plain numbers.

Sample answers from the record:
• COc1cc(-c2nnc(SCc3ccc([N+](=O)[O-])cc3)o2)ccc1OCc1ccc([N+](=O)[O-])cc1 = 20.48
• COc1cc(-c2nnc(SCc3ccc(Cl)cc3)o2)ccc1O = 43.35
• COc1cc(-c2nnc(SCc3ccc(C)cc3)o2)ccc1OCc1ccc(C)cc1 = 30.38
• COc1cc(-c2nnc(SCc3cccc(Br)c3)o2)ccc1O = 7.95

Next item in the queue.
(Q) Please indicate Ratio CC50/IC50 recorded for COc1cc(-c2nnc(SCc3c(F)cccc3F)o2)ccc1OCc1c(F)cccc1F
(A) 34.21

====

# assay: Cytotoxicity against BALB/c mouse lymph node cells after 24 hrs by MTT assay
# Assay type: cell-based
Could you please report measured CC50 at 24 h for the items listed next?
Respond with the figure and its unit, in that order.

• COc1cc(-c2nnc(SCc3ccc(Cl)cc3)o2)ccc1O = 480 µM

Give measured CC50 at 24 h for every item shown.
1. COc1cc(-c2nnc(SCc3cccc(Br)c3)o2)ccc1OCc1cccc(Br)c1
2. COc1cc(-c2nnc(SCc3ccccc3C)o2)ccc1OCc1ccccc1C
3. COc1cc(-c2nnc(SCc3ccccc3[N+](=O)[O-])o2)ccc1O

(A)
["161 µM", "195 µM", "331 µM"]
